- MEASURED TARGET: bovine factor Xa (Bos taurus, UniProt P00743)
- Construct: bovine factor Xa (from Sigma); purchased Sigma
- Sequence (P00743 41-180 limits assumed): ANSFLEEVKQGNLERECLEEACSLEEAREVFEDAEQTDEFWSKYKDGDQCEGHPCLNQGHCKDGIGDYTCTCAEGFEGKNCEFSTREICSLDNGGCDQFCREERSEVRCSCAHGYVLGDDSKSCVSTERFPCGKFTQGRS
- Sequence (P00743 234-492 limits assumed): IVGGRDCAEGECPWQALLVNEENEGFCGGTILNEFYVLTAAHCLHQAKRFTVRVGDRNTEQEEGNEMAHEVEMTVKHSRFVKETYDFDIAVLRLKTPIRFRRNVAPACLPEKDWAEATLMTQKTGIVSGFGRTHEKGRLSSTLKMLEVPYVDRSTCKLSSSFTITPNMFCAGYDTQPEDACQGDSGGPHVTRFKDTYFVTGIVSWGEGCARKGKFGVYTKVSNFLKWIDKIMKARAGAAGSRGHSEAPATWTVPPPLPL
- TEST DETAILS: Factor X inhibition assay (IC50, Example 4)
- Format: biochemical
- CONDITIONS: Factor X; read-out: IC50
ASSAY ENDPOINT: IC50
Note: a bare number is incomplete; add the unit.

State its IC50 for this compound: N=C(N)NCCC[C@H](NC(=O)[C@@H]1CCN2CC[C@@](N)(Cc3ccccc3)C(=O)N12)C(=O)CCl [(13b)]
385 nM

* * *

- MEASURED TARGET: tryptase
- TEST DETAILS: tryptase inhibition assay (Ki, Example 5)
- Type: biochemical, human lung
- CONDITIONS: tryptase; read-out: Ki
ASSAY ENDPOINT: Ki (nM)
Write down the numeric answer in nM and omit the unit.

State its Ki for this molecule: N=C(N)NCCCC(NC(=O)C1CCC2CCC(N)(Cc3ccccc3)C(=O)N21)C(=O)c1nc2ccccc2s1 (stereo not shown) [(29b)]
9

* * *

- MEASURED TARGET: factor VII (Homo sapiens, UniProt P08709)
- Construct: human Factor VIIa (FVIIa)
- Sequence (P08709 61-212 limits assumed): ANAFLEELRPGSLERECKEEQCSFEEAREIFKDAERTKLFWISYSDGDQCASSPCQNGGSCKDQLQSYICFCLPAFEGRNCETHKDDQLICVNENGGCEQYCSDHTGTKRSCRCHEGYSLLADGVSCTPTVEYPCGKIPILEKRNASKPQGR
- Sequence (P08709 213-466 limits assumed): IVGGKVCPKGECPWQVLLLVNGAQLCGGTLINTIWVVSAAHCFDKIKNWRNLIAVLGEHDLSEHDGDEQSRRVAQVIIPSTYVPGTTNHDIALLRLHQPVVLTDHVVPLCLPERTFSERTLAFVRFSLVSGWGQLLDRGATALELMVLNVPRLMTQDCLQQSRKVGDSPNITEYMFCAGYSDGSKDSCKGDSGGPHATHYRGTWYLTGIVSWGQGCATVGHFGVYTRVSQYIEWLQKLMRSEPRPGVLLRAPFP
- TEST DETAILS: Factor VII inhibition assay (Ki, Example 5)
- Assay type: biochemical
- CONDITIONS: read-out: Ki (M) Factor VII
ASSAY ENDPOINT: Ki (M)
Write down the numeric answer in M and omit the unit.

State its Ki for this compound: N=C(N)NCCCC(NC(=O)C1CCN2CCC(N)(Cc3ccccc3)C(=O)N12)C(=O)c1nc2ccccc2s1 (stereo not shown) [Structure (20b)]
2.7e-07

* * *

- MEASURED TARGET: tryptase
- TEST DETAILS: tryptase inhibition assay (Ki, Example 5)
- Assay type: biochemical, human lung
- CONDITIONS: read-out: Ki (M) Tryptase
ASSAY ENDPOINT: Ki (M)
Write down the numeric answer in M and omit the unit.

State its Ki for this molecule: COC(=O)c1c[nH]c(C(=O)[C@H](CCCNC(=N)N)NC(=O)[C@@H]2CCN3CC[C@@](N)(Cc4ccccc4)C(=O)N23)n1 [Structure (45)]
1.65e-06

State its Ki for this molecule: N=C(N)NCCCC(NC(=O)C1CCC2CCC(N)(Cc3ccccc3)C(=O)N21)C(=O)c1nc2ccccc2s1 (centres unmarked) [Structure (29b)]
9e-09

* * *

- MEASURED TARGET: FVIIa and TF complex (Homo sapiens)
- Construct: 50 µl of 16 nM FVIIa and TF complex solution
- Sequence (P08709 61-212 limits assumed): as the sequence (P08709 61-212 limits assumed) above
- Sequence (P08709 213-466 limits assumed): as the sequence (P08709 213-466 limits assumed) above
- Sequence (P13726 33-295 partner): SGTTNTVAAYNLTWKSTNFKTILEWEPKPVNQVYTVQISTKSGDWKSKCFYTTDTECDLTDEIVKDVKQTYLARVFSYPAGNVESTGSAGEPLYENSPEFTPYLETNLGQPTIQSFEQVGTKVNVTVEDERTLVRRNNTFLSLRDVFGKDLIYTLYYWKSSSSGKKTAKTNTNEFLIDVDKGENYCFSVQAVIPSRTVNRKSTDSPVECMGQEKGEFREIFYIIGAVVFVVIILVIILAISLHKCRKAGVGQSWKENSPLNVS
- TEST DETAILS: Factor VII inhibition assay (IC50, Example 4)
- CONDITIONS: footnote d: IC50
ASSAY ENDPOINT: IC50 (nM)
Write down the numeric answer in nM and omit the unit.

State its IC50 for this compound: N=C(N)NCCC[C@H](NC(=O)[C@@H]1CCN2CC[C@@](N)(Cc3ccccc3)C(=O)N12)C(=O)CCl [Structure (13b)]
140

* * *

Field: Ki. Provide a value for each of the compounds that follow.
- MEASURED TARGET: factor VII (Homo sapiens, UniProt P08709)
- Construct: human Factor VIIa (FVIIa)
- TEST DETAILS: Factor VII inhibition assay (Ki, Example 5)
- Assay type: biochemical
Write down the numeric answer in µM and omit the unit.

State its Ki for this compound: `N=C(N)NCCC[C@H](NC(=O)[C@@H]1CCN2CC[C@@](N)(Cc3ccccc3)C(=O)N12)C(=O)C(=O)NCCc1ccccc1`
0.0164

State its Ki for this compound: `N=C(N)NC(=O)NC[C@H](NC(=O)[C@@H]1CCN2CC[C@@](N)(Cc3ccccc3)C(=O)N12)C(=O)c1nc2ccccc2s1`
4.26

State its Ki for this compound: `COC(=O)c1c[nH]c(C(=O)[C@H](CCCNC(=N)N)NC(=O)[C@@H]2CCN3CC[C@@](N)(Cc4ccccc4)C(=O)N23)n1`
29.6
